target: Insulin-like growth factor 1 receptor (Homo sapiens, UniProt P08069); note: in the data inactive means no Kd found up to 30 µM
Sequence (P08069 31-736 limits assumed): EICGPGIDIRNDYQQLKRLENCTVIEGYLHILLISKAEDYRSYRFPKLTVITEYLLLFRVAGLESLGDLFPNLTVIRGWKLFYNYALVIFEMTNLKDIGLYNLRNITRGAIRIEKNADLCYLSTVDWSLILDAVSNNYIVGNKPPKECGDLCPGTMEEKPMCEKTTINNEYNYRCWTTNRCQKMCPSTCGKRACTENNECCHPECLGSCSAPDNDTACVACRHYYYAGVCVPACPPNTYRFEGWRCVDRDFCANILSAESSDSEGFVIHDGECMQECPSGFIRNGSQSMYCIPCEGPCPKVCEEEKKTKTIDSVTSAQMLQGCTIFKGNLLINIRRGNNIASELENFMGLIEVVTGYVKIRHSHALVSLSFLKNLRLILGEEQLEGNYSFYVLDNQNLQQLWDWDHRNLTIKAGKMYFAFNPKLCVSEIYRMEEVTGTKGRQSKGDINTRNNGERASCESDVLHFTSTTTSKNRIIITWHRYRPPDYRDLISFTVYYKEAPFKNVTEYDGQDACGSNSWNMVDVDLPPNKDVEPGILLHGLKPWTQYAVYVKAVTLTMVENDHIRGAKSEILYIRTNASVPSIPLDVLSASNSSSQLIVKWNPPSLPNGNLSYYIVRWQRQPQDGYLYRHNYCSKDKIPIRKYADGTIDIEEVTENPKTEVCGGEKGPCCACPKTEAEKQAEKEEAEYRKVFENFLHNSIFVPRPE
Sequence (P08069 741-1367 limits assumed): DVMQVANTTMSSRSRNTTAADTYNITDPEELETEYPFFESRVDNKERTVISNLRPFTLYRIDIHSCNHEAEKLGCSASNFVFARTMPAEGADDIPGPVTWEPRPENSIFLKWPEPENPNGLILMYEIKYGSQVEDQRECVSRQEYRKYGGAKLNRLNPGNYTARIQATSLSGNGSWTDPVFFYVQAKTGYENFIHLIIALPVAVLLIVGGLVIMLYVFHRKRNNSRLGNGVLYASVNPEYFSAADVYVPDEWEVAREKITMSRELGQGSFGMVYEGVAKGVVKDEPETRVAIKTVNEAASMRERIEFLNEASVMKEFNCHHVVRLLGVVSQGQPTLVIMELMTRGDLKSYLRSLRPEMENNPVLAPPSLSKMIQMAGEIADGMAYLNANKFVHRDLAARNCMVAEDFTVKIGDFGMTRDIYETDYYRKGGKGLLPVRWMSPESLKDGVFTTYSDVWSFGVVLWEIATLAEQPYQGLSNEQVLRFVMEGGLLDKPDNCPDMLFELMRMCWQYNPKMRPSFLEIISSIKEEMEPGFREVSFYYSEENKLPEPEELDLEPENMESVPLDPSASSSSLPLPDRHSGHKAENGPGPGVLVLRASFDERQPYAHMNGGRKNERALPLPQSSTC
Activity calls are given as the source filed them.
Property: Kd

| Chemical smiles | Property | Value observed |
| --- | --- | --- |
| COCCNCc1ccc(-c2cc3nccc(Oc4ccc(NC(=S)NC(=O)Cc5ccc(F)cc5)cc4F)c3s2)nc1 | Kd | > 30 µM (inactive) |
| COc1ccc(-c2ccc3c(N4CCOC[C@@H]4C)nc(N4CCOC[C@@H]4C)nc3n2)cc1CO | Kd | > 30 µM (inactive) |
| CCCS(=O)(=O)Nc1ccc(F)c(C(=O)c2c[nH]c3ncc(-c4ccc(Cl)cc4)cc23)c1F | Kd | > 30 µM (inactive) |
| C[C@@H](Nc1cc(F)cc(F)c1)c1cc(C(=O)N(C)C)cc2c(=O)cc(N3CCOCC3)oc12 | Kd | > 30 µM (inactive) |
| COC(=O)N[C@@H](C)CNc1nccc(-c2cn(C(C)C)nc2-c2cc(Cl)cc(NS(C)(=O)=O)c2F)n1 | Kd | > 30 µM (inactive) |

### Prompt Report Kd under test system Insulin-like growth factor 1 receptor (Homo sapiens, UniProt P08069) for Cn1ncc(Cl)c1-c1cc(C(=O)N[C@H](CN)Cc2cccc(F)c2)sc1Cl . Note: in the data inactive means no Kd found up to 30 µM.
### Response > 30 µM (inactive)

### Prompt Report Kd under test system Insulin-like growth factor 1 receptor (Homo sapiens, UniProt P08069) for CNS(=O)(=O)Nc1nccc(Cc2c(C)c3ccc(Oc4ncccn4)cc3oc2=O)c1F . Note: in the data inactive means no Kd found up to 30 µM.
### Response > 30 µM (inactive)

### Prompt Report Kd under test system Insulin-like growth factor 1 receptor (Homo sapiens, UniProt P08069) for CCS(=O)(=O)N1CC(CC#N)(n2cc(-c3ncnc4[nH]ccc34)cn2)C1 . Note: in the data inactive means no Kd found up to 30 µM.
### Response > 30 µM (inactive)

These data points were gathered from ChEMBL document CHEMBL3991601.
